Value source: the supplement of paper PMC10567573

Recorded measurements of protein stability index, one per entry
- test_details: protein stability index of a GFP-peptide fusion (GPS, HEK-293T) (PSI 1-6); higher = more stable;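 also: 24-mer peptide tiles fused after GFP, lentivirally expressed, FACS-sorted into six equal bins by GFP/DsRed ratio, decoded by Illumina sequencing, PSI is the read-weighted mean bin number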
- assay_conditions: treatment: MLN4924 1 uM, 8 h; c terminus: a fixed tail appended
Reply with the value as a number alone.

Example entries and their recorded answers appear below.
DYRKQLQYPNPLPVLSGAELEKAH [VPS39]	4.41
FEQGKWDVFSENLLADVKGARAAL [STX11]	2.72
TFASLETVGIYFGLVYRIHSVLQG [TMEM40]	3.24
WMWLSCSSFFQQFFHCYCPVGFGR [CRY1]	2.4
KPILLQRMEGSQEVVNMAVIVPKE [WDFY2]	3.54

Entry HESSGNPPLRVIVKDALFCSCLSD [RHOBTB3] ; protein stability index = 3.24

For MVHKRSHTGERPFQCNQCGASFTQ [IKZF1] the sequence record lists protein stability index as 2.97

# sequence SDFKTDKEGGQAGSGQRVPALEEA [ELOA2] ; its protein stability index = 5.49

Looking up GDVLHAHLDIWKSAAWMKERTSPG [SPDEF] , I see its protein stability index listed as 3.06

Item: KKKSVAMHTNYLSACSFTNSDMQI [GNB5] | protein stability index: 2.8

Lookup result for DDEGDSYSDNPCSCSQSHCCSRYL [SPRY1] ; measured protein stability index: 4.57

response.value for DSDSCQKCDQPFFWNFKQMWDSKK [WDFY2] (field: protein stability index) = 3.71

# protein stability index (sequence: PKSLVRLSLEAVICFKEMLANSWN [KLHDC2] ) is 2.49
